Record form. Attribute: Percent Effect. Fill in for each entry.
# Tested on: Wolbachia pipientis
# methodDescription: Anti-Wolbachia Cell-Based Screen
# Type: functional
# Design: scale not given: in the data most compounds retested in dose-response had high values
# conditionSet: 5 µM
Out of some 48,000 compounds screened, about 13,000 (27%) showed an effect of 50% or more. Some of the results follow.
One number for each entry, in %.

CC(C)c1nnc(CNc2ccc(SC(F)(F)F)cc2)o1    -0.02401
CCN(CC1CCCO1)C(=O)NCCNC(=O)c1ccccc1F (stereo unspecified)    93.7
Cn1cnnc1C1CCCN(C(=O)CCc2ccc3c(c2)OCO3)C1 (stereo unspecified)    6.982
Cl.OC(CNCc1ccccc1C(F)(F)F)c1ccccc1 (stereo unspecified)    -21.52

Quick request: Percent Effect for each listed item, please.
1. Cc1cc(C)n(C2CCCN(C(=O)c3cc(C4CC4)on3)C2)n1 (stereo unspecified)
2. Cn1cnnc1C1CCCN(C(=O)c2cc(C3CC3)on2)C1 (stereo unspecified)

Result:
8.092
107.9

---

# Test system: Wolbachia pipientis
# methodDescription: Anti-Wolbachia Cell-Based Screen
# Type: functional
# Set-up: scale not given: in the data most compounds retested in dose-response had high values
# conditionSet: 5 µM
The campaign covered roughly 48,000 compounds. About 13,000 (27%) showed an effect of 50% or more. Some of the results follow.
readoutKind: Percent Effect (%)
Numbers only, in %.

Worked examples follow.
c1ccc(-c2nnc([C@H]3CCN(C4CCC4)C3)o2)cc1    -5.137
O=C(O)C(F)(F)F.c1csc(CN2CCCn3cnc(COCC4CC4)c3C2)n1    -1.239
Cc1ncsc1CN1C[C@@H](OCC2CC2)[C@H]2OCCC[C@H]21    -10.25
c1cc(C2CN(C3CCCC3)C2)n[nH]1    154.3

Batch lookup, Percent Effect per entry.
1. F[C@@H]1CN(C2CCC2)C[C@@H]1OCc1nc2ncccc2[nH]1
2. c1cc(C2CCN(C3CCCCC3)C2)n[nH]1 (stereo not drawn)

Result:
0.839
99.9

Hi team, please reply with Percent Effect for each item in this list.
1. CNC(=O)[C@H]1C[C@@H]2CN(C(=O)c3ccccn3)C[C@@H]2N1S(C)(=O)=O.O=C(O)C(F)(F)F
2. CC(C)(NC(=O)Nc1cnn(CC2CCCO2)c1)c1nccs1 (stereo not drawn)

Result:
[96.47, -5.14]

---

So I've got a bunch of compounds here, and I need their Percent Effect values.
# Test system: Wolbachia pipientis
# methodDescription: Anti-Wolbachia Cell-Based Screen
# Format: functional
# Set-up: scale not given: in the data most compounds retested in dose-response had high values
# conditionSet: 5 µM
The campaign covered roughly 48,000 compounds. About 13,000 (27%) showed an effect of 50% or more. This is one part of the list.
Answers are plain numbers, in %.

Example compounds with recorded Percent Effect:
CSc1cccc(CN2CCC(CCC(=O)NC3CC3)CC2)c1    0.2093
N#Cc1ccccc1C(=O)Nc1cccc(CN2CCC(CO)CC2)c1    103.3
O=C(NC1CC1)C1CCCN1c1ncnc2ccsc12 (stereo not given)    -11.59

Hi team, please reply with Percent Effect for each item in this list.
1. Cc1ncccc1C(=O)NC1CC(=O)N(CC(F)(F)F)C1 (stereo not given)
2. O=C1CCCc2cc(-c3csc(CCN4CCOC4=O)n3)ccc2N1

Result:
1: -0.2034; 2: 2.984

Please supply Percent Effect for each of the following items, keeping them in order.
1. COCCN1CCc2onc(C(c3ccccc3)c3ccccc3)c2C1
2. CS(=O)(=O)NCC1CCCCN1C(=O)c1csc(-c2ccsc2)n1 (stereo not given)
3. O=C(Cc1ccon1)N(CCC(F)(F)F)C1CCCC1
4. CCOCCCC(=O)N1CCN(c2cccc(OC)c2)C(C)C1 (stereo not given)
5. Cc1cc(N(Cc2cccnc2)C2CC2)n2nc(C(F)(F)F)nc2n1
6. CN(C)CCn1c(=O)oc2ccc(NC(=O)c3cc(Cl)c[nH]3)cc21
7. CN(C)c1nc(NCc2ccccc2Cn2cccn2)ncc1F
8. CCC(C)N(Cc1ccncc1)Cc1cccc(Cn2cccn2)c1 (stereo not given)

Result:
[19.48, 11.05, -15, 5.389, 19.73, -2.174, 5.014, -14.79]

Please give Percent Effect for each item listed below.
1. Cn1cc(C2CCCN2C(=O)c2cnc(C3CC3)s2)cn1 (stereo not given)
2. O=C(c1cc2c(s1)CCC2)N1CCCCC1Cn1cccn1 (stereo not given)
3. O=C(Nc1cccc(CN2CCC(CO)CC2)c1)c1cc(Cl)c[nH]1
4. CC(C)(C)c1n[nH]cc1CNC1CCC(C(F)(F)F)CC1.Cl (stereo not given)
5. CC(C)N1c2sc(-c3ccccc3)nc2CC1C(=O)NC1CCCC1 (stereo not given)

Result:
1. 90.11
2. -2.201
3. 101.9
4. 89.77
5. 22.35

For each entry beneath this line, provide reported Percent Effect.
1. O=C([C@@H]1CCCO1)N1CCC(Cn2cc(-c3ccsc3)nn2)CC1
2. Cc1cnc(CN2CCN(C(C)c3nc(C)no3)CC2)cn1 (stereo not given)

Result:
1. -13.58
2. 31.99

---

# Tested on: Wolbachia pipientis
# methodDescription: Anti-Wolbachia Cell-Based Screen
# Type: functional
# Design: scale not given: in the data most compounds retested in dose-response had high values
# conditionSet: 5 µM
Hit rate of the full screen: of about 48,000 compounds, about 13,000 (27%) showed an effect of 50% or more. The list shows a part of the results.
readoutKind: Percent Effect (%)
Give bare numbers, in %.

Cc1noc(C(C)C)c1C(=O)NCC1CCN(c2ccccc2)C1 (stereo not drawn)    -7.701

Give one value of Percent Effect per listed molecule.
1. Cc1noc(C(C)C)c1C(=O)NCc1cc(F)cc(F)c1
2. O=C(O)[C@@H]1CN(C(=O)Cc2ccccc2Cl)C[C@H]1C1CC1
3. CCOc1ccccc1CC(=O)N1C[C@H](C2CC2)[C@@H](N)C1
4. O=C(O)C(F)(F)F.O=C([C@@H]1C[C@@H]2CCN(C3CCOCC3)C[C@H]2O1)N1CCOCC1

Result:
-8.359
117.2
104.9
89.37

Dear colleague, could you send me Percent Effect for each of the items below? Thanks.
1. COc1ccc(S(=O)(=O)NC(=O)c2c(C)noc2C(C)C)cc1OC
2. N#Cc1ccc(CN2CCN(C(=O)C3CCC3)[C@@H]3CS(=O)(=O)C[C@@H]32)cc1
3. CCOCCOc1ccccc1C(=O)N1C[C@H](C2CC2)[C@@H](N)C1
4. Cc1noc(C(C)C)c1C(=O)NCCCN1CCC(C)CC1
5. O=C(CC1CCCCC1)N1CCC(O)(C(F)(F)F)C1 (stereo not drawn)
6. CCC(CO)N(Cc1ccco1)C(=O)c1sccc1NC(C)=O (stereo not drawn)

Result:
1. 2.156
2. -4.315
3. -0.9919
4. 80.48
5. -0.05196
6. 21.44

Respectfully, I request Percent Effect for each entry included below.
1. CC(=O)NCCCC(=O)NC1(c2ccc(Cl)c(Cl)c2)CC1
2. CN(Cc1cc(Br)c2c(c1)OCO2)Cc1cscn1

Result:
1: -4.491; 2: 2.814

---

# Tested on: Wolbachia pipientis
# methodDescription: Anti-Wolbachia Cell-Based Screen
# Format: functional
# Design: scale not given: in the data most compounds retested in dose-response had high values
# conditionSet: 5 µM
The whole screen tested about 48,000 compounds, of which about 13,000 (27%) showed an effect of 50% or more. The list shows a part of the results.
readoutKind: Percent Effect (%)
Give bare numbers, in %.

These recorded examples may help you get a feel for the data.
O=C(NCC(O)c1ccsc1)Nc1cccs1 (configuration not stated)    136.4
CC(C)Oc1cccc(C(O)CNC(=O)Nc2cccs2)c1 (configuration not stated)    -15.38
CNc1nc(N2CCN(C)C(CCO)C2)nc2c1CCC2 (configuration not stated)    -12.86
O=C(CNc1cccc(S(=O)(=O)C(F)F)c1)Nc1ccccc1    9.714

Respectfully, I request Percent Effect for each entry included below.
1. CC(C)Oc1cccc(C(O)CNC(=O)NCc2cccs2)c1 (configuration not stated)
2. O=C(NCC(O)c1cccs1)c1ccco1 (configuration not stated)
3. CC(C)(C)c1cc(NC(=O)C2CCCO2)n(-c2ccccn2)n1 (configuration not stated)
4. c1cc(-c2c[nH]c([C@@H]3COCCN3Cc3csnn3)n2)ccn1
5. Cc1nc(N2CCN(C)CC2)ncc1C(=O)N1CCCCCC1
6. CN1CCCN(C(=O)c2cnc(C(C)(C)C)nc2O)CC1

Result:
1: -2.917; 2: -9.342; 3: -31.1; 4: 7.154; 5: 100.3; 6: -12.59

---

For each record, write down the corresponding Percent Effect.
# Test system: Wolbachia pipientis
# methodDescription: Anti-Wolbachia Cell-Based Screen
# Type: functional
# Parameters: scale not given: in the data most compounds retested in dose-response had high values
# conditionSet: 5 µM
The campaign covered roughly 48,000 compounds. About 13,000 (27%) showed an effect of 50% or more. Some of the results follow.
Give bare numbers, in %.

Here are 7 compounds. What values of Percent Effect were reported for them?
1. Cc1nc(C)n(CC2CCCCN2CC(=O)NC2CCOCC2)n1 (centres undefined)
2. CCc1ccc(S(=O)(=O)N2CCCC(c3ncc[nH]3)C2)s1 (centres undefined)
3. CN(C)[C@@H]1CCN(c2ncc(F)cn2)[C@H]1Cc1ccncc1.O=C(O)C(F)(F)F.O=C(O)C(F)(F)F
4. CCc1cnc(N2CCN(Cc3ccon3)CC2)s1
5. O=S(=O)(c1ccc(Cl)s1)N1CCCn2ncnc21
6. CSc1nc2cc(C)n(CC(=O)N3CCCC3)c2c(=O)n1CC(C)C
7. CCc1ccc(S(=O)(=O)N2CCCn3ncnc32)s1

Result:
-3.575
-13.86
2.593
-1.549
95.01
4.703
83.72

Each of the following entries comes with a recorded value; kindly state Percent Effect for each.
1. CS(=O)(=O)N[C@@H]1CCN(Cc2ccncc2)[C@H]1Cc1cccnc1
2. CCC(O)(CNCc1ccncc1)c1ccc(Br)cc1 (centres undefined)
3. O=C(NCCc1cccnc1)N1CCCC1c1ccsc1 (centres undefined)

Result:
1. -7.843
2. 15.97
3. 4.878

Hi team, please reply with Percent Effect for each item in this list.
1. Cc1noc(CN2Cc3ccccc3CC2c2nnc(C)o2)n1 (centres undefined)
2. O=S(=O)(c1ccc(Cl)s1)N1CCCC(c2ncc[nH]2)C1 (centres undefined)
3. CC(C)NC(=O)N1CC[C@@H](N(C)C)[C@@H]1Cc1ccncc1.O=C(O)C(F)(F)F.O=C(O)C(F)(F)F

Result:
[1.632, 4.292, -7.431]

Can you give me Percent Effect for all of these, one by one?
1. CN(C)C[C@@H]1CCC[C@@H]2CN(c3cccnc3)C[C@@H]21.O=C(O)C(F)(F)F
2. CCc1nnc(C2Cc3ccccc3CN2Cc2nc(C)no2)o1 (centres undefined)
3. COc1ncc(NS(=O)(=O)c2ccc(OC)c(C)c2)c(OC)n1
4. COC(=O)c1ccc2ccn(CC3COCCO3)c(=O)c2c1 (centres undefined)
5. COc1ccccc1[C@@H]1CN(C(=O)c2csc(C)n2)C[C@H]1C(=O)O
6. COc1ccc(-c2noc([C@@H](C)NC(=O)NC(C)(C)C)c2C(=O)O)cc1

Result:
[5.573, 88.09, -43.62, -29.12, -8.955, -18.05]
